tested on: Staphylococcus lugdunensis; assay: MIC, CLSI broth microdilution, clinical isolates; type: cell-based; details: Staphylococcus lugdunensis (N = 15)
property-name: MIC90 (µg/mL)

> print(dat)
                                smiles.text  unit.annotation  comparative.sign  readout.number
1  C[C@H]1COc2c(N3CCN(C)CC3)c(F)cc3c(=O)c(C(=O)O)cn1c23            µg/mL                 >               8
2  N[C@@H]1CCCCN(c2c(F)cc3c(=O)c(C(=O)O)cn(C4CC4)c3c2Cl)C1            µg/mL                 =             0.5
3  NC[C@H]1O[C@H](O[C@H]2[C@H](O)[C@@H](O[C@H]3O[C@H](CO)[C@@H](O)[C@H](N)[C@H]3O)[C@H](N)C[C@@H]2N)[C@H](N)C[C@@H]1O            µg/mL                 =              32
